The measured values listed here are drawn from patent US6737383B1.

Readings of Plant response rating, Wheat for the listed compounds
# Test system: wheat
# protocol_text: Test B pre/postemergence wheat
# Format: in vivo, Triticum aestivum
# conditions_used: Preemergence, Rate 62 g/ha; scale 0 to 10 (0 no effect, 10 complete control)
# Experimental: […] At the same time, these crop and weed species were also treated with postemergence applications of test chemicals formulated in the same manner. […] Treated plants and controls were maintained in a greenhouse for twelve to sixteen days, after which all species were compared to controls and visually evaluated. […]
result_type: Plant response rating, Wheat

compound: CC(C)N(C(=O)n1oc(=O)n(C(C)CCl)c1=O)c1ccc(F)cc1F (stereo not shown)
meas_value: 0

compound: Cc1nsc(Cl)c1Cn1c(=O)on(C(=O)N(c2ccc(F)cc2)C(C)C)c1=O
meas_value: 0

compound: CC(C)N(C(=O)n1oc(=O)n(C2CCC2)c1=O)c1ccc(Cl)cc1
meas_value: 0

compound: CC(C)N(C(=O)n1oc(=O)n(C2CCC2)c1=O)c1ccccc1
meas_value: 0

----------
# Tested on: giant foxtail
# protocol_text: Test B pre/postemergence giant foxtail
# Assay type: in vivo, Setaria faberii
# conditions_used: Rate 62 g/ha, Postemergence; scale 0 to 10 (0 no effect, 10 complete control)

compound: CCN(CC)C(=O)n1oc(=O)n(C2CC2)c1=O
target_entity: giant foxtail
Giant foxtail plant response rating: 0
//
compound: CCOC(=O)CC(C(=O)OCC)n1c(=O)on(C(=O)N(c2ccc(F)cc2F)C(C)C)c1=O (stereo not shown)
target_entity: giant foxtail
Giant foxtail plant response rating: 2
//
compound: Cc1c(-n2c(=O)on(C(=O)N(c3ccc(F)cc3)C(C)C)c2=O)ccc2ccccc12
target_entity: giant foxtail
Giant foxtail plant response rating: 0
//
compound: CC(C)=CCn1c(=O)on(C(=O)N(c2ccc(F)cc2)C(C)C)c1=O
target_entity: giant foxtail
Giant foxtail plant response rating: 0

----------
# Tested on: soybean
# protocol_text: Test B pre/postemergence soybean
# Assay type: in vivo, Glycine max
# conditions_used: Preemergence, Rate 250 g/ha; scale 0 to 10, 0 is no effect, 10 is complete control
Consider the following molecules and their measured Soybean plant response rating readings.

compound_structure: C=CCn1c(=O)on(C(=O)N(c2ccc(F)cc2)C2CCC2)c1=O
Soybean plant response rating: 0
--
compound_structure: CC(C)N(C(=O)n1oc(=O)n(CCC[Si](C)(C)C)c1=O)c1ccc(F)cc1
Soybean plant response rating: 0
--
compound_structure: Cc1ccccc1-n1c(=O)on(C(=O)N(c2ccc(Cl)cc2F)C(C)C)c1=O
Soybean plant response rating: 0

----------
# Test system: giant foxtail
# protocol_text: Test B pre/postemergence giant foxtail
# Type: in vivo, Setaria faberii
# conditions_used: Rate 500 g/ha, Postemergence; scale 0 to 10, 0 no effect, 10 complete control
The reader will find reported Plant response rating, Giant foxtail values listed item by item below.

compound: Cc1c(-n2c(=O)on(C(=O)N(c3ccc(F)cc3)C(C)C)c2=O)ccc2ccccc12 [Compound 338]
target_entity: giant foxtail
Plant response rating, Giant foxtail: 0

compound: CC(C)N(C(=O)n1oc(=O)n(C2CCC2)c1=O)c1ccccc1 [Compound 348]
target_entity: giant foxtail
Plant response rating, Giant foxtail: 9

compound: CC(C)N(C(=O)n1oc(=O)n(C(C)CCl)c1=O)c1ccc(F)cc1 (stereo not drawn) [Compound 367]
target_entity: giant foxtail
Plant response rating, Giant foxtail: 8

compound: CC(C)N(C(=O)n1oc(=O)n(C2CC3CCC2C3)c1=O)c1ccc(F)cc1F (stereo not drawn) [Compound 326]
target_entity: giant foxtail
Plant response rating, Giant foxtail: 2

compound: Cc1c(-n2c(=O)on(C(=O)N(c3ccc(F)cc3F)C(C)C)c2=O)ccc2ccccc12 [Compound 337]
target_entity: giant foxtail
Plant response rating, Giant foxtail: 0

compound: CC(C)N(C(=O)n1oc(=O)n(C2CCCCCC2)c1=O)c1ccc(Cl)cc1 [Compound 339]
target_entity: giant foxtail
Plant response rating, Giant foxtail: 0
